B1: SMOC2 (parent)
chain: PALETQPQGDEEDIASRYPTLWTE

# Variants of: B1
# Protocol Description: protein stability index of a GFP-peptide fusion (GPS, HEK-293T) (PSI 1-6); higher = more stable;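 note: lentivirally expressed fusions sorted by FACS into six bins by GFP to DsRed ratio, PSI derived from sequencing read proportions per bin multiplied by bin number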
# Experimental Conditions: c terminus: a fixed tail appended
Readout Type: protein stability index
Reply briefly: the number, and no unit.

As a guide, the following entries are already answered.
Item Sequence	protein stability index
QALETQPQGDEEDIASRYPTLWTE [P1Q]	3.91
PALETQPWGDEEDIASRYPTLWTE [Q8W]	4.16
PALETQPQGDEEDIASRYPTLVTE [W22V]	5.9
PALETQPQGDEEDIASRYPTLWTW [E24W]	4.17
PALETQPQGDEEDIASRYPTLWLE [T23L]	5.29
PALETQPQGDEEDIASRYPTLWTP [E24P]	5.1
PALETQPQGDEEDIASRYPTLWTG [E24G]	5.22
PATETQPQGDEEDIASRYPTLWTE [L3T]	4.9
PAWETQPQGDEEDIASRYPTLWTE [L3W]	4.04
PALETQPQSDEEDIASRYPTLWTE [G9S]	5.09

Using the record for PAKETQPQGDEEDIASRYPTLWTE [L3K] , report its protein stability index.
4.27

Using the record for PSLETQPQGDEEDIASRYPTLWTE [A2S] , report its protein stability index.
4.88
